test system: MV‐4‐11 cells; test: Cell proliferation inhibition assay (CCK8), MV‐4‐11; type: cell-based; settings: Homo sapiens, MV4-11, 72 h, mean ± SD
Listing of entries alongside the reported IC50.
Hi! Could you send only the number? It should be in nM, unit omitted.

Example results:
molecule	reported-endpoint	assay-value
CC(C)(C)CNC(=O)C[C@H](NC(=O)c1cccnc1)C(=O)N[C@@H](CCc1ccccc1)C(=O)N[C@@H]1CN(c2ccc(C(F)(F)F)cc2)C1=O [Compound 79]	IC50	2750
COc1ccc(N2CC(NC(=O)C(CCc3ccccc3)NC(=O)C(CC(=O)NCC(C)(C)C)NC(=O)c3cccnc3)C2=O)cc1 (centres unmarked) [Compound 78]	IC50	2780

Okay, now this molecule:
What the record says about CC(C)C[C@H](NC(=O)[C@H](Cc1ccccc1)NC(=O)c1cnccn1)B(O)O [Bortezomib, reference compound] : IC50 is 5.15

* * *

Molecular target: proteasome β1 subunit (C‐L) (Homo sapiens, UniProt P28072+Q99436)
Assay: Proteasome caspase‐like (C‐L, β1) inhibition
Conditions: C‐L activity; mean ± SD of three independent experiments
Protocol: The human constitutive proteasome was generously provided by Dr. Jiang‐ping Wu (Notre‐Dame Hospital, Montreal, QC, Canada). […] The proteasome activity assay was performed in a total volume of 50 μL, with all samples diluted in Tris–HCl buffer (100 mM Tris–HCl, pH 8.0). […] The IC50 values were calculated using the software GraphPad Prism4, employing the “sigmoidal dose–response (variable slope)” equation for curve fitting.
pIC50: −log10 of the molar value.
Form field: pIC50 (one value per entry).

molecule	system	pIC50
COc1ccc(N2CC(NC(=O)C(CCc3ccccc3)NC(=O)C(CC(=O)NCC(C)(C)C)NC(=O)c3cccnc3)C2=O)cc1 (centres unmarked)	proteasome β1 subunit (C‐L) (Homo sapiens, UniProt P28072+Q99436)	< 5.00
CN(C)c1ccc(N2C[C@@H](NC(=O)[C@H](CCc3ccccc3)NC(=O)[C@H](CC(=O)NCC(C)(C)C)NC(=O)c3cccnc3)C2=O)cc1	proteasome β1 subunit (C‐L) (Homo sapiens, UniProt P28072+Q99436)	< 5.00
CC(C)(C)CNC(=O)C[C@H](NC(=O)c1cnccn1)C(=O)N[C@@H](CCc1ccccc1)C(=O)N[C@H]1CN(c2ccc(F)cc2)C1=O	proteasome β1 subunit (C‐L) (Homo sapiens, UniProt P28072+Q99436)	< 5.00

Note to self: pIC50 recorded for `CC(C)(C)CNC(=O)C[C@H](NC(=O)c1cccnc1)C(=O)N[C@@H](CCc1ccccc1)C(=O)N[C@@H]1CN(c2ccc(C(F)(F)F)cc2)C1=O` was < 5.00

pIC50 measured on `Cc1ccc(N2C[C@@H](NC(=O)[C@H](CCc3ccccc3)NC(=O)[C@H](CC(=O)NCC(C)(C)C)NC(=O)c3cccnc3)C2=O)cc1` = < 5.00

* * *

Tested on: RS4;11 cells
Assay: Cell proliferation inhibition assay (CCK8), RS4;11
Assay type: cell-based, human
Settings: 72 h, mean ± SD
Experimental: MV‐4‐11 cells (1 × 10^4 cells/well), RPMI‐8226 cells (8 × 10^3 cells/well), Molt4 cells (2 × 10^3 cells/well), RS4;11 cells (2 × 10^4 cells/well), and PBMC cells (2 × 10^4 cells/well) were seeded in 96‐well plates (Corning, 3599). Cells were treated with either 0.2% DMSO or fivefold dilutions of compounds from 10 mM stock solutions in DMSO (0.2% final concentration of DMSO) for 72 h. […] Absorbance was measured at 450 nm and 650 nm using a Spectra Max Molecular Devices microplate reader. […]
reported-endpoint: IC50 (nM)
Answer format: numeric, nM implied, no suffix.

Short answer on RS4;11 cells for COc1ccc(N2CC(NC(=O)C(CCc3ccccc3)NC(=O)C(CC(=O)NCC(C)(C)C)NC(=O)c3cccnc3)C2=O)cc1 (stereo not shown) , IC50: 500

* * *

Measured IC50 by item
tested on: RS4;11 cells; test: Cell proliferation inhibition assay (CCK8), RS4;11; assay type: cell-based, human; conditions: Homo sapiens, RS4-11, 72 h, mean ± SD

Before answering, review these 3 worked examples.
compound	assay-value
CC(C)(C)CNC(=O)C[C@H](NC(=O)c1cccnc1)C(=O)N[C@@H](CCc1ccccc1)C(=O)N[C@@H]1CN(c2ccc(C(F)(F)F)cc2)C1=O [Compound 79]	990 nM
CC(C)C[C@H](NC(=O)[C@H](Cc1ccccc1)NC(=O)c1cnccn1)B(O)O [Bortezomib, reference compound]	5.87 nM
CC(C)(C)CNC(=O)C[C@H](NC(=O)c1cnccn1)C(=O)N[C@@H](CCc1ccccc1)C(=O)N[C@H]1CN(c2ccc(F)cc2)C1=O [Compound 69]	1520 nM

Value of measured IC50 for the entry COc1ccc(N2CC(NC(=O)C(CCc3ccccc3)NC(=O)C(CC(=O)NCC(C)(C)C)NC(=O)c3cccnc3)C2=O)cc1 (centres unmarked) [Compound 78] : < 1000 nM

Note to self: IC50 recorded for Cc1ccc(N2C[C@@H](NC(=O)[C@H](CCc3ccccc3)NC(=O)[C@H](CC(=O)NCC(C)(C)C)NC(=O)c3cccnc3)C2=O)cc1 [Compound 76] was 860 nM

* * *

Reported pIC50 values for the following compounds.
Target: human constitutive proteasome, β5 subunit (CT‐L) (Homo sapiens, UniProt P20618+P28074)
Construct: gift of Dr. Jiang-ping Wu (Notre-Dame Hospital, Montreal)
Assay: In vitro 20S proteasome chymotrypsin‐like (CT‐L, β5) inhibition assay
Details: CT‐L activity, substrate Suc‐LLVY‐AMC; mean ± SD of three independent experiments
Procedure: The human constitutive proteasome was generously provided by Dr. Jiang‐ping Wu (Notre‐Dame Hospital, Montreal, QC, Canada). […] The proteasome activity assay was performed in a total volume of 50 μL, with all samples diluted in Tris–HCl buffer (100 mM Tris–HCl, pH 8.0). […] The IC50 values were calculated using the software GraphPad Prism4, employing the “sigmoidal dose–response (variable slope)” equation for curve fitting.
pIC50: −log10 of the molar value.

compound	pIC50
CC(C)[C@H](NC(=O)c1cccnc1)C(=O)N[C@@H](CCc1ccccc1)C(=O)N[C@@H]1CN(c2ccc(F)cc2)C1=O [Compound 72]	< 5.00
C[C@H](NC(=O)c1cnccn1)C(=O)N[C@@H](CCc1ccccc1)C(=O)N[C@@H]1CN(c2ccc(F)cc2)C1=O [Compound 71]	< 5.00
CC(C)(C)CNC(=O)C[C@H](NC(=O)c1cnccn1)C(=O)N[C@@H](CCc1ccccc1)C(=O)N[C@H]1CN(c2ccc(F)cc2)C1=O [Compound 69]	6.54
C[C@H](NC(=O)c1cccnc1)C(=O)N[C@@H](CCc1ccccc1)C(=O)N[C@@H]1CN(c2ccc(F)cc2)C1=O [Compound 70]	< 5.00
CSCC[C@H](NC(=O)c1cccnc1)C(=O)N[C@@H](CCc1ccccc1)C(=O)N[C@@H]1CN(c2ccc(F)cc2)C1=O [Compound 75]	< 5.00

Here is the next item to consider.
// pIC50 lookup, compound = COc1ccc(N2CC(NC(=O)C(CCc3ccccc3)NC(=O)C(CC(=O)NCC(C)(C)C)NC(=O)c3cccnc3)C2=O)cc1 (stereo not drawn) [Compound 78] , result: 6.85

* * *

target: human constitutive proteasome, β5 subunit (CT‐L) (Homo sapiens, UniProt P20618+P28074); construct: gift of Dr. Jiang-ping Wu (Notre-Dame Hospital, Montreal); assay: In vitro 20S proteasome chymotrypsin‐like (CT‐L, β5) inhibition assay; settings: CT‐L activity, substrate Suc‐LLVY‐AMC; mean ± SD of three independent experiments
reported-endpoint: IC50 (nM)
Report the value in nM with no unit label.

Before answering, review these 2 worked examples.
compound	system	IC50, nM
Cc1ccc(N2C[C@@H](NC(=O)[C@H](CCc3ccccc3)NC(=O)[C@H](CC(=O)NCC(C)(C)C)NC(=O)c3cccnc3)C2=O)cc1 [Compound 76]	human constitutive proteasome, β5 subunit (CT‐L) (Homo sapiens, UniProt P20618+P28074)	72
CC(C)(C)CNC(=O)C[C@H](NC(=O)c1cccnc1)C(=O)N[C@@H](CCc1ccccc1)C(=O)N[C@@H]1CN(c2ccc(C(F)(F)F)cc2)C1=O [Compound 79]	human constitutive proteasome, β5 subunit (CT‐L) (Homo sapiens, UniProt P20618+P28074)	282

// IC50 lookup, compound = CN(C)c1ccc(N2C[C@@H](NC(=O)[C@H](CCc3ccccc3)NC(=O)[C@H](CC(=O)NCC(C)(C)C)NC(=O)c3cccnc3)C2=O)cc1 [Compound 77] , result: 132

* * *

molecular target: human constitutive proteasome, β5 subunit (CT‐L) (Homo sapiens, UniProt P20618+P28074); construct: gift of Dr. Jiang-ping Wu (Notre-Dame Hospital, Montreal); test: In vitro 20S proteasome chymotrypsin‐like (CT‐L, β5) inhibition assay; details: CT‐L activity, substrate Suc‐LLVY‐AMC; mean ± SD of three independent experiments
pIC50: −log10 of the molar value.
This section presents molecules with their documented pIC50 values.

Some molecules with known pIC50 results, for comparison:
molecule	pIC50
O=C(N[C@@H](CCc1ccccc1)C(=O)N[C@@H](CCc1ccccc1)C(=O)N[C@@H]1CN(c2ccc(F)cc2)C1=O)c1cccnc1 [Compound 73]	< 5.00
O=C(N[C@@H](Cc1ccccc1)C(=O)N[C@@H](CCc1ccccc1)C(=O)N[C@@H]1CN(c2ccc(F)cc2)C1=O)c1cccnc1 [Compound 74]	< 5.00

Attention now shifts to the item below.
Record summary for CC(C)(C)CNC(=O)C[C@H](NC(=O)c1cnccn1)C(=O)N[C@@H](CCc1ccccc1)C(=O)N[C@@H]1CN(c2ccc(F)cc2)C1=O [Compound 68] : reported pIC50 = < 5.00
